A short record of Ki observed with Suppressor of tumorigenicity 14 protein (Homo sapiens, UniProt Q9Y5Y6) follows.
Sequence (Q9Y5Y6 whole entry): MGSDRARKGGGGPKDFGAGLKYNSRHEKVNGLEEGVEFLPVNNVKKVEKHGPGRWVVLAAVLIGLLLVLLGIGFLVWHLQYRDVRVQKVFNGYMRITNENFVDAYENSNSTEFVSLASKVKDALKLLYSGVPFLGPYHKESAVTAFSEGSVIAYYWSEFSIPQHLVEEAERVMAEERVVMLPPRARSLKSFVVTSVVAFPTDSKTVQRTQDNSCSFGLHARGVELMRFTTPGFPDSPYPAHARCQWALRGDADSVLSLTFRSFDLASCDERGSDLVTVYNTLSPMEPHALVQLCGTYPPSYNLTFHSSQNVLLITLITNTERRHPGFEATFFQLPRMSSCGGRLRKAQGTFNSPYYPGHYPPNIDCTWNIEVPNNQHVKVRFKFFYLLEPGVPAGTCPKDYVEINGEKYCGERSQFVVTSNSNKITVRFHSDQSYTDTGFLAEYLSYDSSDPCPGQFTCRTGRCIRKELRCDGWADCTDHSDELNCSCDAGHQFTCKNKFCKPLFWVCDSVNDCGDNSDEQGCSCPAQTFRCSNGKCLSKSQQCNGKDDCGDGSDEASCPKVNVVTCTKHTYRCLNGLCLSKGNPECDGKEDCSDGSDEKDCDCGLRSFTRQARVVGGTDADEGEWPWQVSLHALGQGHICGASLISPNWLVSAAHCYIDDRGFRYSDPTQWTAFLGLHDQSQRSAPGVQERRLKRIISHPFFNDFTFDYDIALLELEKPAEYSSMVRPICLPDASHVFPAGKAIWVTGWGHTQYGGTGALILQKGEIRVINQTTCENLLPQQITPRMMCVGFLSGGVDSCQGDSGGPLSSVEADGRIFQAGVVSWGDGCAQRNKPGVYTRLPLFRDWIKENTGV
Value kind: Ki (nM)

INSERT INTO results (structure_smiles, tested_system, value_measured) VALUES
  ('CNC(=O)CCCC1CCN(C(=O)[C@H](Cc2cccc(C(=N)N)c2)NS(=O)(=O)c2cccc(-c3ccc(Cl)cc3Cl)c2)CC1', 'Suppressor of tumorigenicity 14 protein (Homo sapiens, UniProt Q9Y5Y6)', 13),
  ('CNC(=O)NCCC1CCN(C(=O)[C@H](Cc2cccc(C(=N)N)c2)NS(=O)(=O)c2cccc(NC(=O)CCN)c2)CC1', 'Suppressor of tumorigenicity 14 protein (Homo sapiens, UniProt Q9Y5Y6)', 7),
  ('N=C(N)c1cccc(C[C@H](NS(=O)(=O)c2cccc(-c3ccc(Cl)c(Cl)c3)c2)C(=O)N2CCC(CCN)CC2)c1', 'Suppressor of tumorigenicity 14 protein (Homo sapiens, UniProt Q9Y5Y6)', 18);

I: N=C(N)c1cccc(C[C@H](NS(=O)(=O)c2cccc(NC(=O)CCN)c2)C(=O)N2CCC(CCNC(=O)NC3CCCCC3)CC2)c1
II: CNC(=O)CCCC1CCN(C(=O)[C@H](Cc2cccc(C(=N)N)c2)NS(=O)(=O)c2cccc(-c3cccc(F)c3)c2)CC1
III: CNC(=O)CCCC1CCN(C(=O)[C@H](Cc2cccc(C(=N)N)c2)NS(=O)(=O)c2cccc(-c3ccc(OC)cc3OC)c2)CC1
QUERY: Ascending by Ki, please: list the molecules accordingly. Could you list the labels in the order requested?
RESULT: III, I, II

The reported measurements were obtained from ChEMBL document CHEMBL3217540.
